In this section we review reported clearance values for a set of molecules.
protocol: Clearance in Sprague-Dawley rat 2 mg/kg, iv
Format: ADME, organism-based
Set-up: dose 2 mg/kg, route intravenous
run_parameters: in vivo
reported_metric: clearance (mL/min/kg)

test_smiles: Cc1ccc(C(=O)NC2CC2)cc1-c1ccc2c(-c3ccccc3C)nncc2c1
endpoint_result: 28.3
//
test_smiles: Cc1ccc(C(=O)NC2CC2)cc1-c1ccc2c(N3CCOC[C@@H]3C)nncc2c1
endpoint_result: 13.3
//
test_smiles: Cc1ccc(C(=O)NC2CC2)cc1-c1ccc2c(NCCN3CCOCC3)nncc2c1
endpoint_result: 20
//
test_smiles: Cc1ccc(C(=O)NC2CC2)cc1-c1ccc2c(OC(C)C)nncc2c1
endpoint_result: 13.3
//
test_smiles: Cc1ccc(C(=O)NC2CC2)cc1-c1ccc2c(O[C@@H](C)C(F)(F)F)nncc2c1
endpoint_result: 5.83

====

protocol: Half life in Sprague-Dawley rat 1 mg/kg, iv
Format: ADME, organism-based
Set-up: dose 1 mg/kg, route intravenous
run_parameters: in vivo

test_smiles: Cc1ccc(C(=O)NC2CC2)cc1-c1ccc2c(N3CCOCC3)nncc2c1
unit_info: h
half-life: 4.1

====

protocol: Oral bioavailability in Sprague-Dawley rat 1 mg/kg
Type: ADME, organism-based
run_parameters: in vivo

test_smiles: Cc1ccc(C(=O)NC2CC2)cc1-c1ccc2c(N3CCOCC3)nncc2c1
bioavailability / %: 22

====

protocol: Volume of distribution at steady state in Sprague-Dawley rat 1 mg/kg, iv
Format: ADME, organism-based
Parameters: dose 1 mg/kg, route intravenous
run_parameters: in vivo, read-out: Vdss

test_smiles: Cc1ccc(C(=O)NC2CC2)cc1-c1ccc2c(N3CCOCC3)nncc2c1
Vd [L/kg]: 3.5

====

protocol: Permeability from apical to basolateral side of human Caco-2 cells
Format: ADME, cell-based
reported_metric: Papp A→B (×10⁻⁶ cm/s)

test_smiles: Cc1ccc(C(=O)NC2CC2)cc1-c1ccc2c(NCCN3CCOCC3)nncc2c1
reported_metric: Papp A→B
endpoint_result: 0.3
//
test_smiles: Cc1ccc(C(=O)NC2CC2)cc1-c1ccc2c(N3CCOCC3)nncc2c1
reported_metric: Papp A→B
endpoint_result: 10.5

====

Reported Papp B→A values are given for each entry in this list.
protocol: Permeability from basolateral to apical side of human Caco-2 cells
Assay type: ADME, cell-based

test_smiles: Cc1ccc(C(=O)NC2CC2)cc1-c1ccc2c(NCCN3CCOCC3)nncc2c1
Papp B→A / ×10⁻⁶ cm/s: 31
//
test_smiles: Cc1ccc(C(=O)NC2CC2)cc1-c1ccc2c(N3CCOCC3)nncc2c1
Papp B→A / ×10⁻⁶ cm/s: 39.8

====

Some molecules, each annotated with its measured half-life.
protocol: Half life in Sprague-Dawley rat 2 mg/kg, iv
Type: ADME, organism-based
Parameters: dose 2 mg/kg, route intravenous
run_parameters: in vivo

test_smiles: Cc1ccc(C(=O)NC2CC2)cc1-c1ccc2c(N3CCOC[C@@H]3C)nncc2c1
unit_info: h
half-life: 1.3

test_smiles: Cc1ccc(C(=O)NC2CC2)cc1-c1ccc2c(-c3ccccc3C)nncc2c1
unit_info: h
half-life: 1.4

test_smiles: Cc1ccc(C(=O)NC2CC2)cc1-c1ccc2c(OC(C)C)nncc2c1
unit_info: h
half-life: 1.8

test_smiles: Cc1ccc(C(=O)NC2CC2)cc1-c1ccc2c(O[C@@H](C)C(F)(F)F)nncc2c1
unit_info: h
half-life: 9.9

test_smiles: Cc1ccc(C(=O)NC2CC2)cc1-c1ccc2c(NCCN3CCOCC3)nncc2c1
unit_info: h
half-life: 2.3
